So I've got a bunch of molecules here, and I need their viability decrease (inhibition) values.
assay: decreased DLD-1 cellular survival, CellTiter-Glo luminescent readout, NPC compound collection, primary HTS (AID 1117346); conditions: DLD-1 viability, CellTiter-Glo luminescence; at 20 µM (top of the series)
Just the number please, in %, no unit attached.

The molecule identified as "O=C1CC[C@H](C(=O)N2CCCCC2)N1" registered its viability decrease (inhibition) at 0.1

The molecule identified as "CCOC(=O)c1c(N)sc2c1CCN(Cc1ccccc1)C2" registered its viability decrease (inhibition) at 31.8

The molecule identified as "CCN1CCN(C(=O)N[C@@H](C(=O)N[C@@H]2C(=O)N3[C@@H]2SC(C)(C)[C@H]3C(=O)O)c2ccccc2)C(=O)C1=O" registered its viability decrease (inhibition) at -5.2

The molecule identified as "CCN(CC)CCOC(=O)C1(c2ccccc2)CCCC1" registered its viability decrease (inhibition) at -2.6

The molecule identified as "Oc1ccccc1" registered its viability decrease (inhibition) at 0.9

The molecule identified as "C#Cc1ccc(-c2ccccc2F)cc1" registered its viability decrease (inhibition) at 18.8

The molecule identified as "CC(C)CCC[C@@H](C)[C@H]1CC[C@H]2[C@@H]3CC=C4C[C@@H](O)CC[C@]4(C)[C@@H]3CC[C@]12C" registered its viability decrease (inhibition) at 41.9

The molecule identified as "CC[C@@H]([C@H](C)O)n1ncn(-c2ccc(N3CCN(c4ccc(OC[C@@H]5CO[C@@](Cn6cncn6)(c6ccc(F)cc6F)C5)cc4)CC3)cc2)c1=O" registered its viability decrease (inhibition) at 24.1

The molecule identified as "CCOC(=O)c1ccc(OCCN2C[C@H](O)[C@@H](O)[C@H](O)[C@H]2CO)cc1" registered its viability decrease (inhibition) at -12.5

The molecule identified as "CN(C)C(=O)Oc1ccc[n+](C)c1" registered its viability decrease (inhibition) at -12.1

###

So I've got a bunch of molecules here, and I need their cytochrome c release ratio values.
test: inhibitors of mitochondrial cytochrome c release, biochemical, purified mitochondria (AID 1603); details: stronger effect = lower value;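 further: mouse liver mitochondria challenged with calcium chloride; signal normalized to the plate average as 100%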
Please give only the number in your answer, with no unit.

The molecule identified as "N=C(N)c1ccc(OCCCCCOc2ccc(C(=N)N)cc2)cc1" registered its cytochrome c release ratio at 2.1

The molecule identified as "Cc1onc(-c2c(Cl)cccc2Cl)c1C(=O)N[C@@H]1C(=O)N2[C@@H]1SC(C)(C)[C@@H]2C(=O)O" registered its cytochrome c release ratio at 1.34

The molecule identified as "CN(C)CCOC(c1ccccc1)c1ccccc1" registered its cytochrome c release ratio at 1.11

The molecule identified as "CN(C)CCN(Cc1ccccc1)c1ccccn1" registered its cytochrome c release ratio at 1.13

The molecule identified as "CCOC(=O)[C@H](CCc1ccccc1)N[C@@H](C)C(=O)N1Cc2ccccc2C[C@H]1C(=O)O" registered its cytochrome c release ratio at 0.82

The molecule identified as "CCN(CC)CC(=O)Nc1c(C)cccc1C" registered its cytochrome c release ratio at 1.13

The molecule identified as Cc1cccc(CN2CCN(C(c3ccccc3)c3ccc(Cl)cc3)CC2)c1 (configuration not stated) registered its cytochrome c release ratio at 0.33

The molecule identified as "OC(Cn1cncn1)(Cn1cncn1)c1ccc(F)cc1F" registered its cytochrome c release ratio at 0.79

The molecule identified as COc1cc(NC(C)CCCN)c2ncccc2c1 (configuration not stated) registered its cytochrome c release ratio at 0.68

The molecule identified as "CNCCCC12CCC(c3ccccc31)c1ccccc12" registered its cytochrome c release ratio at 1.86

The molecule identified as "CC(=O)Nc1nnc(S(N)(=O)=O)s1" registered its cytochrome c release ratio at 0.85

The molecule identified as "Cn1cnc([N+](=O)[O-])c1Sc1ncnc2nc[nH]c12" registered its cytochrome c release ratio at 0.54
